Listed below: pIC50 values for each entry.
experimental.target: LINE1 reverse transcriptase (Homo sapiens)
Construct: expressed in transfected cells
assay: Transient artificial-intron Cis LINE1 reporter assay
Format: cell-based
measurement.setup: HEK 293 cells, FLuc/RLuc ratio, read-out: IC50 for inhibition of FLuc luminescence
pIC50: −log10 of the molar value.

compound	experimental.target	pIC50
C#C[C@]1(CO)O[C@@H](n2cnc3c(N)nc(Cl)nc32)C[C@@H]1O [4′-ethynyl-2-chloro-2′-deoxyadenosine]	LINE1 reverse transcriptase (Homo sapiens)	8.10
C#C[C@]1(CO)O[C@@H](n2cnc3c(N)nc(F)nc32)C[C@@H]1O [Islatravir]	LINE1 reverse transcriptase (Homo sapiens)	7.70

* * *

Test system: SW756 cells
assay: Cancer cell viability assay with 3D cell colonies (CellTiter-Glo), SW756
Format: cell-based
measurement.setup: 7 days
Method: Ovarian cancer cell line SK-OV-3 cells were cultured in McCoy's 5a media containing 10% FBS. Ovarian cancer cell line OVCAR-8 cells were cultured in RPMI media containing 10% FBS. […] Cell colony formation was tested using a 3D methylcellulose-based CellTiter-Glo (CTG) viability assay (Cat. No: G7573, Promega). […] Luminescence was read on an Envision Multi Label Reader according to manufacturer's instructions. IC50 values were determined using the following calculation: […]

compound	IC50
N.N.[Cl][Pt][Cl] [Cisplatin, cisplatin]	≤ 10 µM

* * *

Tested on: FaDu cells
assay: Cancer cell viability assay with 3D cell colonies (CellTiter-Glo), FaDu
Assay type: cell-based
measurement.setup: Homo sapiens, FaDu, 168 h, 7 days

molecule	experimental.target	IC50
C#C[C@]1(CO)O[C@@H](n2cnc3c(N)nc(F)nc32)C[C@@H]1O [Islatravir]	FaDu cells	10 to 30 µM

* * *

experimental.target: recombinant MBP-tagged LINE1 protein (238-1061) (Homo sapiens, UniProt O00370)
Construct: recombinant MBP-tagged LINE1 protein (238-1061); MBP
assay: Homogeneous time-resolved fluorescence (HTRF) LINE1 RT assay
measurement.setup: 25° C., 60 minutes, read-out: IC50 for inhibition of LINE1 reverse transcriptase
reported.property: IC50 (nM)

mol.smiles	val
C#C[C@]1(COP(=O)(O)OP(=O)(O)OP(=O)(O)O)O[C@@H](n2cnc3c(N)nc(F)nc32)C[C@@H]1O	12.4

* * *

experimental.target: LINE1 reverse transcriptase (Homo sapiens)
Construct: expressed in transfected cells
assay: Stable artificial-intron Cis LINE1 reporter assay (HeLa Tet-On 3G)
Type: cell-based
measurement.setup: HeLa L1 reporter cells, doxycycline induced, 72 h; read-out: IC50 for inhibition of FLuc luminescence
pIC50: −log10 of the molar value.
Listed below: pIC50 values for each entry.

mol.smiles	pIC50
C#C[C@]1(CO)O[C@@H](n2cnc3c(N)nc(Cl)nc32)C[C@@H]1O	8.52
C#C[C@]1(CO)O[C@@H](n2cnc3c(N)nc(F)nc32)C[C@@H]1O	9.16

The measurements presented in this section are drawn from patent US20250186475A1.
